Recorded values, source patent US9284292B2.

- Test system: influenza virus A/H1N1 (A/New Caledonia/20/1999)
- Format: cell-based, influenza virus type A

{"molecule": "CCOC(=O)C1=CC(OC(CC)CC)C(NC(C)=O)C(NC2(C(=O)O)CC(O)C(NC(C)=O)C(CNC34CC5CC(CC(C5)C3)C4)O2)C1 (stereo not shown) [THE 08/01, Amantadine-C7-Neu5Ac—C16H28N2O4]", "testedOn": "influenza virus A/H1N1 (A/New Caledonia/20/1999)", "EC50": "16 µM"}

====

- Tested on: influenza virus A/H3N2 (A/Panama/2007/99)
- experimentSummary: organism not typed
- Type: cell-based, influenza virus type A
- testConditions: MDCK, 72 h, read-out: EC50 vs A/H3N2
property: EC50 (µM)

{"molecule": "CC(=O)NC1C(O)CC(NC(=N)NC2C=C(C(=O)O)OC(C(O)C(O)CO)C2NC(C)=O)(C(=O)O)OC1CNC12CC3CC(CC(C3)C1)C2 (centres unmarked)", "testedOn": "influenza virus A/H3N2 (A/Panama/2007/99)", "unitOfMeasure": "µM", "numericReadout": 18.3}
{"molecule": "CCOC(=O)C1=CC(OC(CC)CC)C(NC(C)=O)C(NC2(C(=O)O)CC(O)C(NC(C)=O)C(CNC34CC5CC(CC(C5)C3)C4)O2)C1 (centres unmarked)", "testedOn": "influenza virus A/H3N2 (A/Panama/2007/99)", "unitOfMeasure": "µM", "numericReadout": 15.4}
